biological target: Human CaV2.2 channels (Homo sapiens, UniProt Q00975); construct: expressed in transfected cells; assay: Fluorescence assay for CaV2.2 channels using potassium depolarization to induce channel opening (FLIPR, Fluo 4); format: cell-based; conditions: 3 μM test compound; alternative assay buffer 30 mM KCl (inactivated channel state); HEK293 cells stably expressing human CaV2.2
Sequence (P54289 947-1103): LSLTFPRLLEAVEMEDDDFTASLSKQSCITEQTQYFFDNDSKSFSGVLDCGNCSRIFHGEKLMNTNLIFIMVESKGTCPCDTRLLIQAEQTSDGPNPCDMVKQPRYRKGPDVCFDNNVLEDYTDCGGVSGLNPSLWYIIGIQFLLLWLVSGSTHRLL
Sequence (P54289 25-946): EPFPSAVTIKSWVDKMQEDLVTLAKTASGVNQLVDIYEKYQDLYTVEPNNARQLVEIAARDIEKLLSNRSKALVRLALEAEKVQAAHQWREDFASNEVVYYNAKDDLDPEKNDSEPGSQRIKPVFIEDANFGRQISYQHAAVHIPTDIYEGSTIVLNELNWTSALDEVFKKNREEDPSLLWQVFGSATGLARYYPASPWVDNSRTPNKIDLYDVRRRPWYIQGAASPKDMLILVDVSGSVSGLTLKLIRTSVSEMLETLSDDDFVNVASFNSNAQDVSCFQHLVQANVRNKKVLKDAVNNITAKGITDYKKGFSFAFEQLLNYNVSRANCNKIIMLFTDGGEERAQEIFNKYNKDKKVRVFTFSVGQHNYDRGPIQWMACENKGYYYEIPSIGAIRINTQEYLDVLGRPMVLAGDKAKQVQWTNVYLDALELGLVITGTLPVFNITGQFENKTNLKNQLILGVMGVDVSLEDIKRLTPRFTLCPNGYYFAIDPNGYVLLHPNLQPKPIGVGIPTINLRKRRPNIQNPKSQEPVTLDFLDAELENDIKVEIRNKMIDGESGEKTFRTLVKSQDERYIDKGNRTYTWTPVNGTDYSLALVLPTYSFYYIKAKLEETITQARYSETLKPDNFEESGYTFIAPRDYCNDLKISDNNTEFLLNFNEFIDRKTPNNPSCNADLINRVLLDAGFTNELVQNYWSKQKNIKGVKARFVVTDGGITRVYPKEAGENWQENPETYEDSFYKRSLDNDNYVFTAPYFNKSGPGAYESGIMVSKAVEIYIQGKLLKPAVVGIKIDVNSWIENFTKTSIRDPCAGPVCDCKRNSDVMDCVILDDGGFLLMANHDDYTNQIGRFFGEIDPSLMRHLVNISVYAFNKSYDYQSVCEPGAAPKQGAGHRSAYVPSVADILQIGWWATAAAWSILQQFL
Sequence (P54284 whole entry, further chain): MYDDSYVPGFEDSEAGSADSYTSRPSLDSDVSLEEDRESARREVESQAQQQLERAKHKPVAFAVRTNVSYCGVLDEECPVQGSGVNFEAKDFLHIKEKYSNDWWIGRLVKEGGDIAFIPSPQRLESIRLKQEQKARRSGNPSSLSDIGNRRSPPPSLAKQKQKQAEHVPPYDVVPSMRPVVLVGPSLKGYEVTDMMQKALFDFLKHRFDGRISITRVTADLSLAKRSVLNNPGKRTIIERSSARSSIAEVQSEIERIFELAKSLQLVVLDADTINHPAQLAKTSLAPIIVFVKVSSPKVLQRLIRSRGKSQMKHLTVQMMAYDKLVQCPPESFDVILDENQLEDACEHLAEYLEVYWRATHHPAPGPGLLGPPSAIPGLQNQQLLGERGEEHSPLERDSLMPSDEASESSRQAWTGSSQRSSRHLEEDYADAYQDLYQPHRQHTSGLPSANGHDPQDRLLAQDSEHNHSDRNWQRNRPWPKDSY
Sequence (Q00975 whole entry): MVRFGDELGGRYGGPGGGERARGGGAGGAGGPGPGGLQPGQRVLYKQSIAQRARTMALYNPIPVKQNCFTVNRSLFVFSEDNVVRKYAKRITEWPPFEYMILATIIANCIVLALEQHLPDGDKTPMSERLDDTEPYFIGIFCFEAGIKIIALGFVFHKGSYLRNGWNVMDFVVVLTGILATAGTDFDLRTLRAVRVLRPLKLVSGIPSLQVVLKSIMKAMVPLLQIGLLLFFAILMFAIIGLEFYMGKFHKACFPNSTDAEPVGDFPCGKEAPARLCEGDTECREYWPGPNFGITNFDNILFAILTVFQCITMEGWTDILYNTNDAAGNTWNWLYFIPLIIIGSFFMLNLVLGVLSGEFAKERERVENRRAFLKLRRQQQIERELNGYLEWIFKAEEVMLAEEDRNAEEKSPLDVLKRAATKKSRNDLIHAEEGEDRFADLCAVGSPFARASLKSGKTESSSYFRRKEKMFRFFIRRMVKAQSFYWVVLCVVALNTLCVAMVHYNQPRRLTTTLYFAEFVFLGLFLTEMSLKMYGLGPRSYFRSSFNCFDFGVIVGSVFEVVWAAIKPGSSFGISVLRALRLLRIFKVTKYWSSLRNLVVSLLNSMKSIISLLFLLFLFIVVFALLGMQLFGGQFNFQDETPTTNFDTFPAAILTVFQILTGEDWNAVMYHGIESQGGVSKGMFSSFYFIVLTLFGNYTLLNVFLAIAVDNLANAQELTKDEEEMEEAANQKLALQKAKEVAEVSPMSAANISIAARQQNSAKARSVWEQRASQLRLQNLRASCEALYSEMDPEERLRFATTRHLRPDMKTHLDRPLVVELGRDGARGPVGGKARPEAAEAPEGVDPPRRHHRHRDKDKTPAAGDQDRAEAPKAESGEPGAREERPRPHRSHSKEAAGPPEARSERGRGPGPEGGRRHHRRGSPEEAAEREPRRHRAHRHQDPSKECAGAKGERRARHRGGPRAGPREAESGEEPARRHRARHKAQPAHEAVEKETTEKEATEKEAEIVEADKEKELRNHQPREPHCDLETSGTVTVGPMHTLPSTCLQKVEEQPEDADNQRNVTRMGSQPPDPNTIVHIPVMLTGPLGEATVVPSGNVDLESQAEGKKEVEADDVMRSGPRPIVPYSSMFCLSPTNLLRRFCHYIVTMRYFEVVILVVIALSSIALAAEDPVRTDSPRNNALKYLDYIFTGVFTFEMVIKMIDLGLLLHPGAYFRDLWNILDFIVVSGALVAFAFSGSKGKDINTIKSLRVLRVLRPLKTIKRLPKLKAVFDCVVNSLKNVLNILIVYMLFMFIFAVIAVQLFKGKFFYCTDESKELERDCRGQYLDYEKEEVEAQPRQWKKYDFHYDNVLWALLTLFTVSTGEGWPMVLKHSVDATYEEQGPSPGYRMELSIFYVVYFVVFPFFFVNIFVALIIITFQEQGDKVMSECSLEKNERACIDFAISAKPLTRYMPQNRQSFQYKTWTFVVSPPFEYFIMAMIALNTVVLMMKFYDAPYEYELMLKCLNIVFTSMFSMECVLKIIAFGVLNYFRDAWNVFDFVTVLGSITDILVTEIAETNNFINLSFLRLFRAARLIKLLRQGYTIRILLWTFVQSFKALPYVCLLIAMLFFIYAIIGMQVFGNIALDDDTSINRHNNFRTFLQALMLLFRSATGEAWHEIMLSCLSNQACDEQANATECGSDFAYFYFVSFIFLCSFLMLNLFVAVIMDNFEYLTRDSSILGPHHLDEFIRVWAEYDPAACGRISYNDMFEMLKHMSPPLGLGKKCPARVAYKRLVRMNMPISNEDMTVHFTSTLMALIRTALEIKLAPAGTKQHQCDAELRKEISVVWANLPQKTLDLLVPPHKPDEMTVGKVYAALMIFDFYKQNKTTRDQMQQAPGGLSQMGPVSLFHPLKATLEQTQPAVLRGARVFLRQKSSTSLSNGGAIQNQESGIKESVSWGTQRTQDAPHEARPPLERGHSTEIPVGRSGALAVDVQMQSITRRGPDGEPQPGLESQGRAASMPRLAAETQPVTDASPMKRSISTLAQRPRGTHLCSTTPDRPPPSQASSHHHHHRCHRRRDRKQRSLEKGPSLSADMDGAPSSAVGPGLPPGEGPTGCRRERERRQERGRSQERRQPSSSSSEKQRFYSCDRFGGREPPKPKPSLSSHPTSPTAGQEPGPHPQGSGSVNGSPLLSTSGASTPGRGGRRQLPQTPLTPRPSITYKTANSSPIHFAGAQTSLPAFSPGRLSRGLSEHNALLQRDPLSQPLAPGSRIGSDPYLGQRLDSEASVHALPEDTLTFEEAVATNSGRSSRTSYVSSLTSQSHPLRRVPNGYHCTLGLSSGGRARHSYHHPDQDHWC
reported property: Activity Category: %-Inhib (CaV2.2) @3 μM @30 mM KCl

{"compound": "COc1ccc(C2CC(C)(S(=O)(=O)c3cccc(C(F)(F)F)c3)CCO2)cn1 (centres unmarked)", "experimental system": "Human CaV2.2 channels (Homo sapiens, UniProt Q00975)", "reading": "A (%-Inhibition >95%)"}
{"compound": "Cn1nc(C2CC2)cc1C1CC(C)(S(=O)(=O)c2cccc(C(F)(F)F)c2)CCO1 (centres unmarked)", "experimental system": "Human CaV2.2 channels (Homo sapiens, UniProt Q00975)", "reading": "A (%-Inhibition >95%)"}

====

For each of the compounds below, state its inhibition at 3 µM.
molecular target: Human CaV2.2 channels (Homo sapiens, UniProt Q00975); construct: expressed in transfected cells; assay: Fluorescence assay for CaV2.2 channels using potassium depolarization to induce channel opening (FLIPR, Fluo 4); assay type: cell-based; details: HEK293, 3 μM test compound; alternative assay buffer 30 mM KCl (inactivated channel state); HEK293 cells stably expressing human CaV2.2; read-out: Activity Category: %-Inhib (CaV2.2) @3 μM @30 mM KCl

[ask] For the compound CC1(S(=O)(=O)c2cccc(C(F)(F)F)c2)CCOC(c2ncc(C(F)F)cc2Cl)C1 (stereo not shown) , give its measured inhibition at 3 µM value.
[reply] 75 to 95%

[ask] For the compound C[S+]([O-])c1cnc(C2CC(C)(S(=O)(=O)c3cccc(C(F)(F)F)c3)CCO2)c(Cl)c1 (stereo not shown) , give its measured inhibition at 3 µM value.
[reply] 40 to 75%

[ask] For the compound COc1cc(F)c(C2CC(C)(S(=O)(=O)c3cccc(C(F)(F)F)c3)CCO2)cn1 (stereo not shown) [SC-257] , give its measured inhibition at 3 µM value.
[reply] 75 to 95%

[ask] For the compound CC1(S(=O)(=O)c2cccc(C(F)(F)F)c2)CCOC(c2ccc(S(C)(=O)=O)cn2)C1 (stereo not shown) , give its measured inhibition at 3 µM value.
[reply] 75 to 95%

====

target: Human CaV2.2 channels (Homo sapiens, UniProt Q00975); construct: expressed in transfected cells; experiment: Fluorescence assay for CaV2.2 channels using potassium depolarization to induce channel opening (FLIPR, Fluo 4); type: cell-based; conditions: 3 μM test compound; alternative assay buffer 30 mM KCl (inactivated channel state); HEK293 cells stably expressing human CaV2.2
reported property: Activity Category: %-Inhib (CaV2.2) @3 μM @30 mM KCl

{"compound": "CC1(S(=O)(=O)c2cccc(C(F)(F)F)c2)CCOC(c2cnc(C(F)(F)F)nc2)C1 (stereo not drawn) [SC-305]", "reading": "A (%-Inhibition >95%)"}
{"compound": "CC1(S(=O)(=O)c2cccc(C(F)(F)F)c2)CCOC(COc2ccc(C(F)(F)F)nc2)C1 (stereo not drawn) [SC-209]", "reading": "A (%-Inhibition >95%)"}
{"compound": "CCC1(S(=O)(=O)c2cccc(C(F)(F)F)c2)CCOC(c2ccc(C(F)(F)F)cn2)C1 (stereo not drawn) [SC-107]", "reading": "A (%-Inhibition >95%)"}
{"compound": "CC1(S(=O)(=O)c2cccc(C(F)(F)F)c2)CCOC(c2cncc(C(F)(F)F)c2)C1 (single isomer, unassigned) [SC-116]", "reading": "A (%-Inhibition >95%)"}

====

molecular target: Human CaV2.2 channels (Homo sapiens, UniProt Q00975); construct: expressed in transfected cells; test: Fluorescence assay for CaV2.2 channels using potassium depolarization to induce channel opening (FLIPR, Fluo 4); format: cell-based; conditions: HEK293, 3 μM test compound; alternative assay buffer 30 mM KCl (inactivated channel state); HEK293 cells stably expressing human CaV2.2; read-out: Activity Category: %-Inhib (CaV2.2) @3 μM @30 mM KCl
For each of the molecules below, state its inhibition at 3 µM.

[ask] For the molecule Cn1nc(S(C)(=O)=O)cc1C1CC(C)(S(=O)(=O)c2cccc(C(F)(F)F)c2)CCO1 (racemic) , give its measured inhibition at 3 µM value.
[reply] 40 to 75%

[ask] For the molecule Cc1cc(S(C)(=O)=O)cnc1C1CC(C)(S(=O)(=O)c2cccc(OC(F)(F)F)c2)CCO1 (racemic) , give its measured inhibition at 3 µM value.
[reply] 40 to 75%

[ask] For the molecule CC1(S(=O)(=O)c2cccc(C(F)(F)F)c2)CCOC(c2ccc(-n3cncn3)nc2)C1 (centres unmarked) [SC-402] , give its measured inhibition at 3 µM value.
[reply] 75 to 95%

[ask] For the molecule COc1cc(OC)c(C2CC(C)(S(=O)(=O)c3cccc(C(F)(F)F)c3)CCO2)cn1 (centres unmarked) [SC-245] , give its measured inhibition at 3 µM value.
[reply] 75 to 95%

[ask] For the molecule CC1(S(=O)(=O)c2cccc(OC(F)(F)F)c2)CCOC(c2ncc(C(F)(F)F)cc2S(C)(=O)=O)C1 (centres unmarked) , give its measured inhibition at 3 µM value.
[reply] > 95%

[ask] For the molecule Cc1ccc(C2CC(S(=O)(=O)c3cccc(C(F)(F)F)c3)CCO2)c(C)n1 (centres unmarked) , give its measured inhibition at 3 µM value.
[reply] 40 to 75%

[ask] For the molecule CN(C)c1ncc(C2CC(C)(S(=O)(=O)c3cccc(C(F)(F)F)c3)CCO2)cn1 (centres unmarked) , give its measured inhibition at 3 µM value.
[reply] 75 to 95%

[ask] For the molecule COCCOc1ccc(C2CC(C)(S(=O)(=O)c3cccc(C(F)(F)F)c3)CCO2)cn1 (centres unmarked) [SC-404] , give its measured inhibition at 3 µM value.
[reply] 75 to 95%

[ask] For the molecule CC1(S(=O)(=O)c2cccc(C(F)(F)F)c2)CCOC(c2ncc(C3CC3)cc2Cl)C1 (racemic) [SC-435] , give its measured inhibition at 3 µM value.
[reply] > 95%

[ask] For the molecule Cn1nc(C2CC2)cc1C1CC(C)(S(=O)(=O)c2cccc(C(F)(F)F)c2)CCO1 (centres unmarked) [SC-431] , give its measured inhibition at 3 µM value.
[reply] 75 to 95%

[ask] For the molecule CCC1(S(=O)(=O)c2cccc(C(F)(F)F)c2)CCOC(c2cnc(C3CC3)cn2)C1 (centres unmarked) [SC-332] , give its measured inhibition at 3 µM value.
[reply] 75 to 95%

[ask] For the molecule CC1(S(=O)(=O)c2cccc(C(F)(F)F)c2)CCOC(c2ccc(OC(F)F)nc2)C1 (centres unmarked) [SC-418] , give its measured inhibition at 3 µM value.
[reply] > 95%

[ask] For the molecule CCC1(S(=O)(=O)c2cccc(C(F)(F)F)c2)CCOC(c2ccc(C(F)(F)F)cn2)C1 (centres unmarked) , give its measured inhibition at 3 µM value.
[reply] > 95%

[ask] For the molecule CC(C)Oc1ccc(C2CC(S(=O)(=O)c3cccc(C(F)(F)F)c3)CCO2)cn1 (centres unmarked) , give its measured inhibition at 3 µM value.
[reply] > 95%

[ask] For the molecule Cn1nc(C(F)(F)F)cc1C1CC(C)(S(=O)(=O)c2cccc(C(F)(F)F)c2)CCO1 (centres unmarked) [SC-343] , give its measured inhibition at 3 µM value.
[reply] 75 to 95%

[ask] For the molecule CC1(S(=O)(=O)c2cccc(C(F)(F)F)c2)CCOC(c2ccc(Cl)cn2)C1 (centres unmarked) , give its measured inhibition at 3 µM value.
[reply] > 95%

[ask] For the molecule CCC1(S(=O)(=O)c2cccc(C(F)(F)F)c2)CCOC(c2cccc(C)n2)C1 (racemic) [SC-303] , give its measured inhibition at 3 µM value.
[reply] 75 to 95%
